- method: cytotoxicity in Sufu-KO-LIGHT cells, confirmation, cytotoxicity control for Gli-SUFU antagonist project, cell-based, ATP luminescence, single concentration (AID 651994);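 also: cells exposed to compound overnight for roughly 16 to 18 hours; plate controls were DMSO wells with cells for no effect and medium without cells for full effect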
- cond: at 5 µM, stronger effect = higher value
Out of some 2,500 compounds screened, about 790 (32%) were called active. Only a sample is shown.
experimental.readout: cytotoxicity (%)
# unit: % | format: bare number

Below are worked cases with known answers.
Consider the compound CCOC(=O)c1cnc(Nc2nc3ccccc3o2)nc1CSC(=S)N1CCCCC1 and give its measured cytotoxicity.
20.4

Consider the compound Cc1cc(C)c(SCCc2ccncc2)c(C)c1 and give its measured cytotoxicity.
29.5

Consider the compound COc1ccc(NS(=O)(=O)c2ccc(N3CCN(CCO)CC3)c([N+](=O)[O-])c2)cc1 and give its measured cytotoxicity.
16.4

Consider the compound CC(C)(CNC(=O)c1ccc(Cl)c(S(=O)(=O)N2CCc3ccccc3C2)c1)N1CCOCC1 and give its measured cytotoxicity.
17.5

Consider the compound CCOC(=O)c1ccc(NC(=O)Cn2cnc3cc(C)c(C)cc32)cc1 and give its measured cytotoxicity.
24.9

Please find the next compound below.
Consider the compound CCNC(=S)N(CCN(CC)CC)Cc1cc2cc3c(cc2[nH]c1=O)OCO3 and give its measured cytotoxicity.
6.68

====

- method: cytotoxicity in Sufu-KO-LIGHT cells, confirmation, cytotoxicity control for Gli-SUFU antagonist project, cell-based, ATP luminescence, single concentration (AID 651994)
- cond: at 5 µM, stronger effect = higher value
Screen size: about 2,500 compounds; about 790 (32%) were called active. A selection follows.
Each item that follows carries a reported cytotoxicity.
# unit: % | format: bare number

Consider the molecule CCc1ccc(C2C(C#N)=C(N)N(N3CCOCC3)C3=C2C(=O)CC(C)(C)C3)s1 (stereo not given) and give its measured cytotoxicity.
25.2

Consider the molecule CC(C)Oc1ccc(/C=N/NC(=O)c2nnn(-c3nonc3N)c2CN(C)C2CCCCC2)cc1 and give its measured cytotoxicity.
9.64

Consider the molecule CC(C)OCC(O)CN1CCN(C(c2ccccc2)c2ccccc2)CC1 (stereo not given) and give its measured cytotoxicity.
16.3

***
Consider the molecule CC(=O)Nc1cccc(OCC(=O)/C=C2\N(C)c3ccccc3C2(C)C)c1 and give its measured cytotoxicity.
23.9

Consider the molecule C=CCn1c(SCC(=O)CC(=O)OCC)nc2cc(C(=O)N3CCC(C(N)=O)CC3)ccc2c1=O and give its measured cytotoxicity.
3.69

Consider the molecule NC(N)=Nc1nc(-c2ccccc2)c2cc(Cl)ccc2n1 and give its measured cytotoxicity.
27.1

Consider the molecule Cc1ccc(O)c(NC(=O)COc2cc(C)ccc2C)c1 and give its measured cytotoxicity.
-3.46

Consider the molecule CCn1c(SCc2ccccc2)nc2cc(OC)c(OC)cc2c1=O and give its measured cytotoxicity.
23.5

Consider the molecule COc1ccc(Cc2nnc(N/N=C/c3ccccc3O)[nH]c2=O)cc1OC and give its measured cytotoxicity.
43.8

Consider the molecule CC(C)c1ccc(OCC(O)CN2CCN(c3ccccn3)CC2)cc1 (stereo not given) and give its measured cytotoxicity.
9.73

====

- method: cytotoxicity in Sufu-KO-LIGHT cells, confirmation, cytotoxicity control for Gli-SUFU antagonist project, cell-based, ATP luminescence, single concentration (AID 651994)
- cond: at 5 µM
About 790 (32%) of roughly 2,500 compounds were called active.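 Rule for the calls: active = mean cytotoxicity at 5 µM above about 25% (limit read from the data); inactive = the rest.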 The list is a sample of the results.
Allowed answers: true (active), false (inactive)

# example entries with known answers
Could you please tell me the result logged for COc1ccccc1N1CCN(Cc2cc(OC)c3c(c2)OCO3)CC1 in this assay?
false

Could you please tell me the result logged for COC(=O)c1ccccc1NC(=O)C1(S(=O)(=O)c2ccc(Cl)cc2)CC1 in this assay?
false

Could you please tell me the result logged for Cc1cccc2nc(CSc3nc4[nH]ncc4c(=O)n3-c3cccc(Cl)c3)cc(=O)n12 in this assay?
false

Could you please tell me the result logged for O=C(NC1CCN(C(=S)Nc2ccc(Cl)cc2)CC1)C1CCCCC1 in this assay?
false

Could you please tell me the result logged for Cc1onc(-c2ccccc2)c1C(=O)Nc1ccccc1C#N in this assay?
false

***
Could you please tell me the result logged for CCOc1ccc(-n2c(O)c(/C=N/Nc3nc(C)cc(C)n3)c3ccccc3c2=O)cc1 in this assay?
false

Could you please tell me the result logged for COc1ccccc1C1C2=C(COC2=O)Nc2cc3c(cc21)OCO3 (stereo unspecified) in this assay?
true

Could you please tell me the result logged for CC(=O)Nc1ccc(NC(=O)c2ccc3c(c2)C(=O)N(c2ccccc2C)C3=O)cc1 in this assay?
false

Could you please tell me the result logged for COc1ccccc1/C=C/CN1CCC(CO)(Cc2ccccc2)CC1 in this assay?
false

Could you please tell me the result logged for CCc1c(C)nc2cc(C)[nH]n2c1=O in this assay?
false

Could you please tell me the result logged for COc1cc(C(=O)OC2CCOC2=O)c([N+](=O)[O-])cc1OC (stereo unspecified) in this assay?
false

====

Each item that follows carries a reported cytotoxicity.
- method: cytotoxicity in Sufu-KO-LIGHT cells, confirmation, cytotoxicity control for Gli-SUFU antagonist project, cell-based, ATP luminescence, single concentration (AID 651994);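 also: cells exposed to compound overnight for roughly 16 to 18 hours; plate controls were DMSO wells with cells for no effect and medium without cells for full effect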
- cond: at 5 µM, stronger effect = higher value
In all, about 2,500 compounds went through this assay and about 790 (32%) were called active. Not all results are given here.
# unit: % | format: bare number

Below are worked cases with known answers.
Consider the compound CCCCC(=O)NC(c1ccc(OC)c(OC)c1)c1ccc2cccnc2c1O (stereo unspecified) and give its measured cytotoxicity.
19.2

Consider the compound O=C(Nc1ccnn1C1CCN(C/C=C/c2ccc(F)cc2)CC1)C1CCCC1 and give its measured cytotoxicity.
2.29

Consider the compound c1c2c(cc3sc(N4CCCCC4)nc13)OCCO2 and give its measured cytotoxicity.
51.8

Consider the compound COc1ccc(OC)c(Cc2cnc3nc(N)nc(N)c3c2C)c1 and give its measured cytotoxicity.
15.7

***
Consider the compound Cc1cc(NC(=O)c2cccc(N3C(=O)CCC3=O)c2)no1 and give its measured cytotoxicity.
8.93

Consider the compound Cc1ccc(-c2nc3c(cnn3-c3ccccc3)c(=O)o2)cc1 and give its measured cytotoxicity.
8.43

Consider the compound COc1ccc(C(=O)NCc2nnc(SCCOc3ccccc3)n2C)cc1 and give its measured cytotoxicity.
10.2

Consider the compound Cc1c(Cl)c([N+](=O)[O-])nn1Cc1ccc(C(=O)N/N=C\c2cc(Cl)ccc2O)o1 and give its measured cytotoxicity.
29

Consider the compound Cn1c(=O)c2c(nc(NCCc3ccccc3)n2Cc2ccccc2)n(C)c1=O and give its measured cytotoxicity.
34.7

Consider the compound CC(=O)c1c(C)[nH]c(C(=O)OCC(=O)Nc2sc3c(c2C#N)CCCC3)c1C and give its measured cytotoxicity.
17.2

Consider the compound CN(C)CCN(C(=O)C1CCCCC1)c1nc2cc3c(cc2s1)OCO3 and give its measured cytotoxicity.
20.3

====

- method: cytotoxicity in Sufu-KO-LIGHT cells, confirmation, cytotoxicity control for Gli-SUFU antagonist project, cell-based, ATP luminescence, single concentration (AID 651994);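 also: cells exposed to compound overnight for roughly 16 to 18 hours; plate controls were DMSO wells with cells for no effect and medium without cells for full effect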
- cond: at 5 µM, stronger effect = higher value
Screen size: about 2,500 compounds; about 790 (32%) were called active. These entries were drawn from the full list.
experimental.readout: cytotoxicity (%)
# unit: % | format: bare number

Below are worked cases with known answers.
Consider the compound COCCn1c(CN2CCC(Cc3ccccc3)CC2)nc2c1c(=O)n(C)c(=O)n2C and give its measured cytotoxicity.
19.8

Consider the compound Cc1ccc(S(=O)(=O)N2C[C@@H]3CCCC[C@@H]3[C@@H](C)[C@H]2c2cn(Cc3ccccc3)c3ccc(F)cc23)cc1 and give its measured cytotoxicity.
7.61

Consider the compound CCOC(=O)c1cnc(-n2nc(C)cc2C)nc1NNc1cc(C)nc(-c2ccccc2)n1 and give its measured cytotoxicity.
24

Consider the compound O=C(c1cc(Cl)cc(Cl)c1)N1CCC(=O)N(C(COCc2ccccc2)Cc2ccccc2)CC1 (stereo not given) and give its measured cytotoxicity.
21.8

Consider the compound Cc1cc(C(=O)CSc2nc(N)cc(=O)[nH]2)c(C)n1-c1cccc(F)c1 and give its measured cytotoxicity.
34.2

***
Consider the compound COC(=O)c1ccc(CSc2nnc(N)s2)o1 and give its measured cytotoxicity.
21.4

Consider the compound Cc1ccc(Nc2nc(N3CCOCC3)nc(N3CCOCC3)n2)cc1Cl and give its measured cytotoxicity.
40.8

Consider the compound COc1ccccc1CCNC(=O)C(=O)NCCC1CCCCN1S(=O)(=O)c1cccs1 (stereo not given) and give its measured cytotoxicity.
20.7

Consider the compound CCc1c(C)[nH]c(=S)c(C#N)c1C and give its measured cytotoxicity.
9

Consider the compound Cc1cccc(NS(=O)(=O)c2ccc(-c3cnc(C4CC4)o3)cc2)c1 and give its measured cytotoxicity.
54.4

====

- method: cytotoxicity in Sufu-KO-LIGHT cells, confirmation, cytotoxicity control for Gli-SUFU antagonist project, cell-based, ATP luminescence, single concentration (AID 651994);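 also: cells exposed to compound overnight for roughly 16 to 18 hours; plate controls were DMSO wells with cells for no effect and medium without cells for full effect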
- cond: at 5 µM
In all, about 2,500 compounds went through this assay and about 790 (32%) were called active.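 The calls were made as follows: active = mean cytotoxicity at 5 µM above about 25% (limit read from the data); inactive = the rest.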 Only a sample is shown.
Allowed answers: active, inactive

# example entries with known answers
Could you please tell me the result logged for COc1ccc(NC(=O)[C@H](NC(=O)[C@@H]2Cc3ccccc3CN2)c2ccccc2)cc1 in this assay?
inactive

Could you please tell me the result logged for CCOc1cccc(/C=N/NC(=S)NCCN2CCOCC2)c1O in this assay?
inactive

Could you please tell me the result logged for Cc1ccc(NC(=O)CN(C)CC(=O)Nc2cccc(F)c2)cc1[N+](=O)[O-] in this assay?
active

***
Could you please tell me the result logged for Cc1cc2[nH]ncc2cc1NC(=S)NC(=O)c1ccccc1 in this assay?
inactive

Could you please tell me the result logged for C=CCC1(CC=C)CCCN1C(=O)c1cc(COc2ccc(-n3cncn3)cc2)on1 in this assay?
active

Could you please tell me the result logged for C=CCOc1nc2c(c(=O)n(C)c(=O)n2C)n1Cc1ccc(Cl)cc1Cl in this assay?
active

Could you please tell me the result logged for CC1CC2=C(CC1/C=N/NC(N)=S)C(C)(C)CCC2 (configuration not stated) in this assay?
inactive

Could you please tell me the result logged for Nc1ccc(C(=O)N2CCN(S(=O)(=O)c3ccc(Cl)cc3)CC2)cc1[N+](=O)[O-] in this assay?
inactive

Could you please tell me the result logged for CCN(CC(=O)Nc1cc(Cl)ccc1C)C(=O)CSCc1ccc(C)cc1 in this assay?
inactive

Could you please tell me the result logged for CCOc1ccc(-n2c(O)c(/C=N/c3ccnn3Cc3ccncc3)c3ccccc3c2=O)cc1 in this assay?
inactive

Could you please tell me the result logged for COc1ccc2c(C)cc3nnnn3c2c1 in this assay?
active

Could you please tell me the result logged for CN(NC(=O)c1ccccc1F)c1nc(C(F)(F)F)nc2ccccc12 in this assay?
active
